tested on: DU-145 prostate; test: NCI tumour cell line growth inhibition, 48 h

molecule	system	TGI
[O-][n+]1onc2c3nn(-c4ccccc4)nc3ccc21	DU-145 prostate	57.8 µM
c1ccc2c(c1)c1c(n2CCOCCN2CCCCC2)CCCC1	DU-145 prostate	32.6 µM
CCN(CC)CCn1c(=N)n(CC(O)c2ccc(Cl)c(Cl)c2)c2ccccc21 (stereo not given)	DU-145 prostate	26.8 µM
O=C1CCC/C=C\C[C@H]2C=C(Cl)C(=O)/C2=C/C[C@H](CCCCC(F)(F)F)OC(=O)CCC/C=C\C[C@H]2C=C(Cl)C(=O)/C2=C/C[C@H](CCCCC(F)(F)F)O1	DU-145 prostate	1.42 µM
COc1ccc(-c2oc3ccc(C)cc3c(=O)c2O)cc1	DU-145 prostate	> 100 µM

====

Reported TGI values are given for each entry in this list.
tested on: COLO 205 colon; test: NCI tumour cell line growth inhibition, 48 h
experimental-readout: TGI

compound	assay-result
COc1cc(C2c3cc4c(cc3C(O)C3CCC(=O)N23)OCO4)cc(OC)c1OC (stereo not given)	> 100 µM
COc1ccccc1/C=C1\COc2ccc(O)c(O)c2C1=O	8.98 µM
COc1ccc(CN2CCc3c(Cl)nc(N)nc3C2=O)c(OC)c1	30.6 µM
O=C1CCCC1C(=O)Nc1ccc2ccccc2c1 (stereo not given)	> 100 µM
Cc1cc2c(-c3nc4ccccc4[nH]3)c(O)c(O)cc2c(O)c1-c1c(C)cc2c(-c3nc4ccccc4[nH]3)c(O)c(O)cc2c1O	0.913 µM
CN(C)CCCn1c(Cc2ccccc2)nc2cc(C(F)(F)F)ccc21	34.7 µM
C[N+](C)(C)CC(=O)N/N=C(/C=C/c1ccccc1)CC1OC(=O)c2ccccc21 (stereo not given)	> 100 µM
CCCCN(CCCC)C(=Nc1ccccc1)N(CCCC)CCCC	14 µM
COc1ccc([C@H]2c3cc(OC)c(OC)cc3C=C(C=O)C2CO)cc1OC (stereo not given in full)	17.9 µM
COc1cc(/C=C2\C[C@H]3[C@@H]4CC=C5C[C@@H](N6CCCC6)CC[C@]5(C)[C@H]4CC[C@]3(C)[C@H]2O)cc(OC)c1OC	36.5 µM

====

system: NCI-H460 lung; assay: NCI tumour cell line growth inhibition, 48 h

compound	TGI
Cc1ncc(C(=O)Nc2ccc(CN3CCN(C)CC3)c(C(F)(F)F)c2)cc1C#Cc1c(N)ncc2ccc(C#N)cc12	12.1 µM
CCOC(=O)c1cc2c(n1Cc1cccc(OC)c1)-c1oncc1CC2	> 100 µM
COc1ccc(CCNc2nc3ccccc3c3[nH]c4ccccc4c23)cc1OC	5.93 µM
CC(C)(O)Cn1c(=O)c(Oc2ccc(F)cc2F)cc2cnc(NC3CCOCC3)nc21	> 25 µM
CCc1ccc(Cc2ccc(CC)c(NC(=O)C(=O)Cc3nc4ccccc4nc3C)c2CC)c(CC)c1NC(=O)C(=O)Cc1nc2ccccc2nc1C	> 100 µM
COc1ccc(NC(=O)CC/C(CC(=O)c2ccco2)=N/Nc2ccc([N+](=O)[O-])cc2[N+](=O)[O-])cc1	> 100 µM
COc1c(-c2cc(C)c(Cl)c(=O)[nH]2)c(O)c(OC)c2occc12	> 100 µM
CC(=O)Nc1ccc(S(=O)(=O)Nc2nnc(S(N)(=O)=O)s2)cc1	> 100 µM
COc1ccc(CN(O)C2C(CO)OC(n3cc(I)c(=O)[nH]c3=O)C2O)cc1 (centres undefined)	> 100 µM

====

test system: M14 melanoma; experiment: NCI tumour cell line growth inhibition, 48 h
Reported TGI by item:
experimental-readout: TGI

molecule	experimental-readout	assay-result
COC1CC(OC2OC(CO)C(O)C(O)C2O)/C(=C\C#N)C(O)C1OC (stereo unspecified)	TGI	> 100 µM
CCCC1NC(C#N)(C#N)C(CCC)NC1(C#N)C#N (stereo unspecified)	TGI	> 60.6 µM
CC[C@]1(O)C[C@@H]2CN(Cc3c([nH]c4ccccc34)[C@@](C(=O)OC)(c3cc4c(cc3OC)N(C)[C@H]3[C@@](O)(C(=O)OC)[C@H](OC(C)=O)[C@]5(CC)[C@@H]6C[C@@H]6CN6CC[C@]43[C@@H]65)C2)C1	TGI	> 2.93 µM
CCCCC1(N=[N+]=[N-])C(=O)c2cccc3c2N(CCC3)C1=O (stereo unspecified)	TGI	> 100 µM
CC(=O)OC1COC(N2C(=O)C(=O)c3c(C)cc(Cl)nc32)C(OC(C)=O)C1OC(C)=O (stereo unspecified)	TGI	> 100 µM
C[C@]12CC[C@H]3[C@@H](CCC4=CC(=O)C=C[C@@]43O)[C@@H]1CCC2=O	TGI	> 100 µM
CC(=O)Nc1ccc2c(C(=O)O)c(C)c(=O)[nH]c2n1	TGI	> 100 µM
Oc1nc(N/N=C/c2c[nH]c3ccccc23)[nH]c1/C=C1\C=Nc2ccccc21	TGI	75.9 µM
CCN1CCC(C(=O)Nc2n[nH]c3nnc(-c4cccc(F)c4F)cc23)CC1	TGI	> 25 µM
c1ccc2c(c1)c1c(n2CCOCCN2CCCCC2)CCCC1	TGI	25.7 µM
CCc1ccc(Cc2ccc(CC)c(NC(=O)C(=O)Cc3nc4ccccc4nc3C)c2CC)c(CC)c1NC(=O)C(=O)Cc1nc2ccccc2nc1C	TGI	> 100 µM
Cc1ccc(CCC(=O)Nc2ncc(Cc3cc(Cl)ccc3Cl)s2)o1	TGI	3.97 µM
CC1(CCCC2(C)CCNC2=O)OCCO1 (stereo unspecified)	TGI	> 10 µM
O=C1COC(c2ccccc2O)=NN1CCCN1CCCC1	TGI	> 100 µM
Clc1ccc(Cl)c(N/N=C\c2c[nH]c3ccccc23)c1	TGI	25.4 µM
CCc1cc(C(N)=O)ccc1-n1nc(C(C)C)c2c(-n3cnc(-c4cnn(C)c4)c3)ccnc21	TGI	> 100 µM
Cc1cccc2c1C(=O)C1(Cc3ccccc3C1=O)C2 (stereo unspecified)	TGI	> 100 µM
O=S(=O)(c1cc(Cl)ccc1Cl)N1CCN(S(=O)(=O)c2cc(Cl)ccc2Cl)CC1	TGI	> 100 µM
COc1cc[c]([Hg][Cl])cc1	TGI	3.87 µM
O=C(Cn1ccnc1[N+](=O)[O-])NCCO	TGI	> 100 µM
CN(C)CCCn1cnc2ncccc2c1=O	TGI	> 100 µM

====

test system: HCC-2998 colon; assay: NCI tumour cell line growth inhibition, 48 h
experimental-readout: GI50

compound	assay-result
Clc1ccc(Cl)c(N/N=C\c2c[nH]c3ccccc23)c1	13.6 µM
Cc1cc2c(-c3nc4ccccc4[nH]3)c(O)c(O)cc2c(O)c1-c1c(C)cc2c(-c3nc4ccccc4[nH]3)c(O)c(O)cc2c1O	0.0362 µM
FC(F)(F)c1ccc2nc(-c3nc(-c4ccccc4)n4ccccc34)[nH]c2c1	5.98 µM
COc1cc([C@@H]2c3cc4c(cc3[C@H](OC3OC5COC(c6ccccc6)OC5C(O)C3O)[C@H]3COC(=O)[C@H]23)OCO4)cc(OC)c1OC (stereo partly specified)	0.367 µM
O=C(CCCCCCc1nc2ccc(Br)cc2[nH]1)NO	0.777 µM
COc1ccc(C(=O)CC2(O)C(=O)Nc3c(Cl)ccc(Cl)c32)cc1 (stereo unspecified)	5.24 µM
O=C1CCC/C=C\C[C@H]2C=C(Cl)C(=O)/C2=C/C[C@H](CCCCC(F)(F)F)OC(=O)CCC/C=C\C[C@H]2C=C(Cl)C(=O)/C2=C/C[C@H](CCCCC(F)(F)F)O1	0.215 µM
CCN(CC)CCCCCCCCNc1c2ccc(Cl)cc2nc2ccc(OC)cc12	1.77 µM
C=C1C(=O)OC(CCCCCCCC)C1C(=O)O (stereo unspecified)	17.5 µM
COc1cc(-c2cc(-c3ccc(N(C)C)cc3)nc(N3CCC(O)CC3)c2C#N)cc(OC)c1OC	0.54 µM
O=P(O)(O)OC1C(OP(=O)(O)O)C(OP(=O)(O)O)C(OP(=O)(O)O)C(OP(=O)(O)O)C1OP(=O)(O)O (stereo unspecified)	> 2000 µM

====

Documented TGI across a set of compounds
tested on: A498 renal; assay: NCI tumour cell line growth inhibition, 48 h

compound	TGI
COC(c1ccsc1)C(C#N)(C#N)N=Cc1ccsc1 (centres undefined)	29.1 µM
N#Cc1c([N+](=O)[O-])cc(C(F)(F)F)cc1[N+](=O)[O-]	32.9 µM
COc1ccc(C(=O)/C=C/c2ccc(Cl)cc2)cc1S(N)(=O)=O	22.1 µM
O=S(=O)(c1cc(Cl)ccc1Cl)N1CCN(S(=O)(=O)c2cc(Cl)ccc2Cl)CC1	> 100 µM
C=CCOc1ccc(C2c3c([nH][nH]c3=O)CC(O)(OCC)C2C(=O)OCC)cc1OC (centres undefined)	> 100 µM
CC(=O)NC1(C)CCC(C(C)(C)NC(C)=O)CC1 (centres undefined)	> 100 µM
CCN(CC)CCCCCCCCNc1c2ccc(Cl)cc2nc2ccc(OC)cc12	2.78 µM
Oc1nc(N/N=C/c2c[nH]c3ccccc23)[nH]c1/C=C1\C=Nc2ccccc21	27.8 µM
O=C(Cn1ccnc1[N+](=O)[O-])NCCO	> 100 µM
O=c1ccc2nc(-c3ccccc3)nn(-c3ccccc3)c-2c1	33.4 µM
CCCC1NC(C#N)(C#N)C(CCC)NC1(C#N)C#N (centres undefined)	> 96.4 µM
O=C(CCCCCCc1nc2ccc(Br)cc2[nH]1)NO	2.1 µM
CC(=O)Oc1c(-c2ccccc2)[nH]c2cc([N+](=O)[O-])c(/C(Cl)=C/c3ccccc3)cc12	23.6 µM
Cc1c(-c2ccccc2)c(C#N)c2nnn(-c3ccccc3)c(=O)n12	> 100 µM
CSc1nc2ccccc2c(=O)n1/N=C1\C(=O)N(CN2CCOCC2)c2ccc(Cl)cc21	> 100 µM
CN(C)CCCn1c(Cc2ccccc2)nc2cc(C(F)(F)F)ccc21	34.6 µM
Cc1oc2nc1C(=O)NCc1nc(cs1)C(=O)N[C@H](C(C)C)c1nc(cs1)C(=O)N[C@H]2C	> 100 µM
COC(=O)C1=C(O)C(O)=C(C(=O)OC)CC1	> 100 µM
CC1CN(CCO)CC(C)O1 (centres undefined)	> 100 µM
COc1cc2c(cc1OC)C1CN3C(=O)CCC3C(O)C1c1cc(OC)c(OC)cc1-2 (centres undefined)	> 100 µM
COc1ccc(C(=O)c2cc3c(N)c(C(=O)Nc4cccc(Cl)c4)sc3nc2C)cc1	> 33.3 µM
COc1c(O)c2ccccc2c2cc(O)ccc12	24.1 µM
C=Nc1ccc([N+](=O)[O-])cc1	> 100 µM
CCOC(=O)c1cc2c(n1Cc1cccc(OC)c1)-c1oncc1CC2	3.39 µM
CC1=NN(c2cccc(Cl)c2)C2(C1)C(Cl)C(=O)N2c1nc2ccccc2s1 (centres undefined)	> 100 µM
N#Cc1c(N)nn(C(=O)c2ccc(NC(=O)c3ccccn3)cc2)c1-c1ccc(Cl)cc1	> 100 µM
O=c1[nH]nc(-c2ccccc2)c(-c2ccccc2)c1-n1nc(-c2ccccc2)c2ccccc2c1=O	> 100 µM
Nn1c(Cc2ccc(Cl)cc2)n[nH]c1=O	> 100 µM
COc1ccc(CN(O)C2C(CO)OC(n3cc(I)c(=O)[nH]c3=O)C2O)cc1 (centres undefined)	> 100 µM

Hello, the source for this data is PubChem BioAssay (NCI), in case you need it.
